Target: CD8-MerTK (Ba/F3-CDM cells) (Homo sapiens, UniProt Q12866)
Sequence (Q12866 21-999 limits assumed, change not shown): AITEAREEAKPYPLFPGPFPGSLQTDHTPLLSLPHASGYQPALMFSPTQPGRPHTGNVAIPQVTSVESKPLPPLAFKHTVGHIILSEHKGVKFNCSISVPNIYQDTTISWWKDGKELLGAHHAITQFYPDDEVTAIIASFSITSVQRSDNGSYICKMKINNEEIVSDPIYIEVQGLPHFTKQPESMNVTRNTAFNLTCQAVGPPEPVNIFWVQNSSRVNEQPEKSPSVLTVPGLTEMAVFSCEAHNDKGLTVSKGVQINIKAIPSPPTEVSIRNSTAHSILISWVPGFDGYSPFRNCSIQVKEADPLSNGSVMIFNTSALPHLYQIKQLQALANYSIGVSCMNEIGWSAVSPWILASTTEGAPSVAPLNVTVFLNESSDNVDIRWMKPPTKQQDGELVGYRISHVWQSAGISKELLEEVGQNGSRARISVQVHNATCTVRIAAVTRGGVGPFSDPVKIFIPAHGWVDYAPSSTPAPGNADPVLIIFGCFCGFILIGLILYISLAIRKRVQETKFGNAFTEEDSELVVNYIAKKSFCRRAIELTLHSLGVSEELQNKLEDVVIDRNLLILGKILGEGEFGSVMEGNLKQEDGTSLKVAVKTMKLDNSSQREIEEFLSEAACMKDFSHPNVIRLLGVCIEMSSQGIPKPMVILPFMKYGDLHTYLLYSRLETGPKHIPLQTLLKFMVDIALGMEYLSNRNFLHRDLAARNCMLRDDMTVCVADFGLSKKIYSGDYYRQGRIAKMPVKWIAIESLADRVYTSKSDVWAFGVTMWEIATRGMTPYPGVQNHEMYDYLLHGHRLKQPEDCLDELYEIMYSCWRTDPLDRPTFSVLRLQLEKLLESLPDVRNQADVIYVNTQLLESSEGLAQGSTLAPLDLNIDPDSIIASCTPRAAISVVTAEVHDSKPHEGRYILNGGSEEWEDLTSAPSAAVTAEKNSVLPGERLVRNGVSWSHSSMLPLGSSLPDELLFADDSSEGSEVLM
Assay: In Cell MER Kinase Assay Using BaF3 Cellular System
Settings: Ba/F3-CDM proliferation without IL-3, 48 hours, Celltiter-Glo
Method: CD8-MerTK is a chimeric fusion protein consisting of the extracellular and transmembrane domains of the human CD8α (amino acids 1 to 209) at its N-terminus and the kinase domain and intracellular parts of MerTK (amino acids 521-994) at its C-terminus. […] Following compound treatment, cells were further incubated for 48 hours and the proliferation was measured. […] Cell growth and proliferation was measured with Celltiter-Glo™ system (Promega, USA) according to the manufacturer's instruction. […]
pIC50: −log10 of the molar value.
property name: pIC50

>>> test_result("Nc1cncc(-c2cnc(N)c(C(=O)N[C@@H]3CCN(C(=O)c4ccc(-c5ccc(F)cc5Cl)cc4)C3)c2)c1")
"< 6.00"
>>> test_result("Nc1ncc(-c2ccc(N3CCOCC3)nc2)cc1C(=O)N[C@@H]1CCN(C(=O)c2ccc(-c3ccccc3)cc2)C1")
"6.30 to 7.00"
>>> test_result("Nc1ncc(-c2ccccc2C(=O)O)cc1C(=O)N[C@@H]1CCN(C(=O)c2ccc(-c3ccc(F)cc3Cl)cc2)C1")
"< 6.00"
>>> test_result("Cc1cc(C(=O)N2CC[C@@H](NC(=O)c3cc(-c4cnn(C)c4)cnc3N)C2)ccc1-c1ccc(CN2CCN(C)CC2)cc1")
"< 6.00"
>>> test_result("Cc1cc(-c2ccc(CN3CCN(C)CC3)cc2)ccc1C(=O)N1CC[C@@H](NC(=O)c2cc(-c3cnn(C)c3)cnc2N)C1")
"< 6.00"
>>> test_result("Cn1cc(-c2cnc(N)c(C(=O)N[C@@H]3CCN(C(=O)Oc4ccc5cc(OCC6CCNCC6)ccc5c4)C3)c2)cn1")
"6.00 to 6.30"
>>> test_result("Cn1cc(-c2cnc(N)c(C(=O)N[C@@H]3CCN(C(=O)c4ccc(-c5ccc(OCC6CCNCC6)cc5)cc4)C3)c2)cn1")
"< 6.00"
>>> test_result("Cn1cc(-c2cnc(N)c(C(=O)N[C@@H]3CCN(C(=O)Oc4cccc(OCC5CCC(N)CC5)c4)C3)c2)cn1 (some centres unmarked)")
"< 6.00"

----------
Target: human c-MER catalytic domain (Homo sapiens (Human), UniProt Q12866)
pIC50: −log10 of the molar value.
# pIC50 per record follows
property name: pIC50

>>> test_result("Nc1cncc(-c2cnc(N)c(C(=O)N[C@@H]3CCN(C(=O)c4ccc(-c5ccc(F)cc5Cl)cc4)C3)c2)c1")
"> 8.00"
>>> test_result("Nc1ncc(-c2ccc(N3CCOCC3)cc2)cc1C(=O)N[C@@H]1CCN(C(=O)c2ccc(-c3ccc(F)cc3Cl)cc2)C1")
"7.00 to 8.00"
>>> test_result("Cn1cc(-c2cnc(N)c(C(=O)N[C@@H]3CCN(C(=O)Oc4cccc(-c5ccc(CN6CCOCC6)cc5)c4)C3)c2)cn1")
"6.00 to 7.00"
>>> test_result("Cn1cc(-c2cnc(N)c(C(=O)N[C@@H]3CCN(C(=O)Oc4ccccc4N)C3)c2)cn1")
"< 6.00"

----------
# pIC50 per record follows
Target: human MER (528-end) (Homo sapiens (Human), UniProt Q12866)
Sequence (Q12866 528-999 limits assumed): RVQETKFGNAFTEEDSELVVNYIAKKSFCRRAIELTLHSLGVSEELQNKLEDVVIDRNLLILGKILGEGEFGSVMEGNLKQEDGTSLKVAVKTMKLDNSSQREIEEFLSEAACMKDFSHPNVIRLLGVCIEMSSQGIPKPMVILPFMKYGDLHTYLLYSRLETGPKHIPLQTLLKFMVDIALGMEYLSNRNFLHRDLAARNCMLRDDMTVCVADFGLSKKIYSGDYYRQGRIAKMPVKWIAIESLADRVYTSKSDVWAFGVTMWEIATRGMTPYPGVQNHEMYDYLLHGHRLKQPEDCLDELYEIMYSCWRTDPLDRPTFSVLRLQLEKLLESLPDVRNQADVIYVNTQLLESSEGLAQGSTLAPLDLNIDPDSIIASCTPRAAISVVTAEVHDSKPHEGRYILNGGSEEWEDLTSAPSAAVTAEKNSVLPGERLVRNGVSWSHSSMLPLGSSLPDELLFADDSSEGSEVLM
Assay: HTRF Kinase Activity Biochemical Assay (KinEASE-TK)
Settings: 10 uM ATP
pIC50: −log10 of the molar value.
property name: pIC50

>>> test_result("Cn1cc(-c2cnc(N)c(C(=O)N[C@@H]3CCN(C(=O)c4ccc(-c5ccccc5Oc5ccccc5)cc4)C3)c2)cn1 [Example 351]")
"< 6.00"
>>> test_result("Nc1ncc(-c2ccc(CO)cc2)cc1C(=O)N[C@@H]1CCN(C(=O)Nc2cccc(-c3ccccc3)c2)C1 [Example 256]")
"6.00 to 7.00"
>>> test_result("Cn1cc(-c2cnc(N)c(C(=O)N[C@@H]3CCN(C(=O)Oc4ccc5c(c4)CCCC5)C3)c2)cn1 [Example 56]")
"6.00 to 7.00"
>>> test_result("Cn1cc(-c2cnc(N)c(C(=O)N[C@@H]3CCN(C(=O)c4ccc(Oc5ccccc5)cc4)C3)c2)cn1 [Example 731]")
"6.00 to 7.00"
>>> test_result("Cc1ccc(-c2ccc(C(=O)N3CC[C@@H](NC(=O)c4cc(-c5cnn(C)c5)cnc4N)C3)cc2O)s1 [Example 535]")
"6.00 to 7.00"
>>> test_result("Cn1cc(-c2cnc(N)c(C(=O)N[C@@H]3CCN(C(=O)c4ccc(-c5ccc(Oc6ccc(C=O)cc6)cc5)cc4)C3)c2)cn1 [Example 811]")
"7.00 to 8.00"
>>> test_result("Nc1ncc(-c2ccc(C(=O)N3CCOCC3)cc2)cc1C(=O)N[C@@H]1CCN(C(=O)Oc2cccc(-c3ccccc3)c2)C1 [Example 83]")
"6.00 to 7.00"
>>> test_result("Cn1cc(-c2cnc(N)c(C(=O)N[C@@H]3CCN(Cc4ccccc4Br)C3)c2)cn1 [Example 232]")
"6.00 to 7.00"
>>> test_result("Cc1cc(OC(=O)N2CC[C@@H](NC(=O)c3cc(-c4cnn(C)c4)cnc3N)C2)cc(C(C)C)c1 [Example 57]")
"< 6.00"
>>> test_result("Cn1cc(-c2cnc(N)c(C(=O)N[C@@H]3CCN(C(=O)c4cccc(-c5cccc(Cn6ccnc6)c5)c4)C3)c2)cn1 [Example 460]")
"< 6.00"
>>> test_result("Cn1cc(-c2cnc(N)c(C(=O)N[C@@H]3CCN(Cc4ccccc4Cl)C3)c2)cn1 [Example 208]")
"6.00 to 7.00"
>>> test_result("Cn1cc(-c2cnc(N)c(C(=O)N[C@@H]3CCN(C(=O)c4ccc(-c5ccc(F)cc5Cl)cc4)C3)c2)cn1 [Example 366]")
"7.00 to 8.00"
>>> test_result("Cn1cc(-c2cnc(N)c(C(=O)N[C@@H]3CCN(C(=O)c4ccc(-c5ccc(Cl)c(F)c5)cc4)C3)c2)cn1 [Example 661]")
"7.00 to 8.00"
>>> test_result("Cn1cc(-c2cnc(N)c(C(=O)N[C@@H]3CCN(C(=O)Nc4cccc(-c5ccc(N6CCNCC6)nc5)c4)C3)c2)cn1 [Example 261]")
"6.00 to 7.00"
>>> test_result("Cn1cc(-c2cnc(N)c(C(=O)N[C@@H]3CCN(C(=O)Oc4cccc5cccnc45)C3)c2)cn1 [Example 73]")
"< 6.00"
>>> test_result("CN1CC[C@@H](NCc2ccc(-c3cccc(OC(=O)N4CC[C@@H](NC(=O)c5cc(-c6cnn(C)c6)cnc5N)C4)c3)cc2)C1 [Example 310]")
"6.00 to 7.00"
>>> test_result("Nc1ncc(-c2ccc(F)c(F)c2)cc1C(=O)N[C@@H]1CCN(C(=O)Oc2cccc(-c3ccccc3)c2)C1 [Example 84]")
"< 6.00"
>>> test_result("Cn1cc(-c2cnc(N)c(C(=O)N[C@@H]3CCN(C(=O)Oc4cccc(-c5ccc(CN6CCCC(CO)C6)cc5)c4)C3)c2)cn1 (stereo partly shown) [Example 320]")
"6.00 to 7.00"
>>> test_result("Cn1cc(-c2cnc(N)c(C(=O)N[C@@H]3CCN(C(=O)OC4CCCC4)C3)c2)cn1 [Example 106]")
"< 6.00"
